Biological target: recombinant sEH (Homo sapiens, UniProt P34913)
Construct: made in house; host or cells: Sf9 insect cells
Sequence (P34913 1-555): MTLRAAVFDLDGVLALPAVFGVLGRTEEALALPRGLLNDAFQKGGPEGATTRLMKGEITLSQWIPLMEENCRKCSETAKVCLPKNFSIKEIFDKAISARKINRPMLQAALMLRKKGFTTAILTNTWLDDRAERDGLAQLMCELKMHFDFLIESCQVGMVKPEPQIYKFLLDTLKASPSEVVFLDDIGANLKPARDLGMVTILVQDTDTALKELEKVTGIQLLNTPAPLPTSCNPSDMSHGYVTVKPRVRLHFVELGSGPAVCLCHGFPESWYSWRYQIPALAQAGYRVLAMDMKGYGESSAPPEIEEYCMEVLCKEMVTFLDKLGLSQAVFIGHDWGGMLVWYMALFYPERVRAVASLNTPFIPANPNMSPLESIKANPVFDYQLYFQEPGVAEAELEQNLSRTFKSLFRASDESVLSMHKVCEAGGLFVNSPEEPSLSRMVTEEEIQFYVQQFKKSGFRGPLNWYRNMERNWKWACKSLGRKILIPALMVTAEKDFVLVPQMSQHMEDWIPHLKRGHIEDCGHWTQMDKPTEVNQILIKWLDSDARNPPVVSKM
Test: biochemical screening assay for inhibition of soluble epoxide hydrolase (fluorometric, Phome substrate)
MEASURED_ENDPOINT: pIC50
One number for each entry, as −log10 of the molar value.

Worked cases, answers included:
COMPOUND	pIC50
O=C(NC1CCCCC1)N[C@H]1CO[C@H]2[C@@H]1OC[C@@H]2C#Cc1ccccn1	7.72
Cc1ncccc1O[C@H]1CO[C@H]2[C@@H]1OC[C@@H]2NC(=O)NC1CCC(=O)N(C)C1 (stereo partly shown)	6.08
Cc1ccc(S(=O)(=O)O[C@@H]2CO[C@H]3[C@@H]2OC[C@@H]3NC(=O)NC2CCCCC2)cc1	7.72

I have 8 compounds here; please give me pIC50 for each one.
1. Cc1ncccc1O[C@H]1CO[C@H]2[C@@H]1OC[C@@H]2NC(=O)NCC1COCCO1 (stereo partly shown)
2. O=C(NC1CCCCC1)N[C@H]1CO[C@H]2[C@@H]1OC[C@@H]2Oc1ccc(Cl)nc1
3. CC(C)S[C@H]1CO[C@H]2[C@@H]1OC[C@@H]2NC(=O)NC1CCCCC1
4. O=C(NC1CCCCC1)N[C@H]1CO[C@H]2[C@@H]1OC[C@@H]2Oc1cc(F)ccc1Cl
5. O=C(Nc1ccc(Cl)c(Cl)c1)NC1COC2C(CCc3ccccc3)COC12 (stereo not shown)
6. Cc1ncccc1O[C@H]1CO[C@H]2[C@@H]1OC[C@@H]2NC(=O)NC1CC(C)(C)CC(C)(C)C1
7. COc1ccc([C@@H](C)NC(=O)N[C@H]2CO[C@H]3[C@@H]2OC[C@@H]3Oc2ccc(F)cc2)cc1
8. CC(=O)Nc1cccc(O[C@H]2CO[C@H]3[C@@H]2OC[C@@H]3NC(=O)NC2CCCCC2)c1

Reply text:
5.83
8.10
9.00
8.70
7.66
9.00
8.22
8.70

I have 5 compounds here; please give me pIC50 for each one.
1. Cc1ncccc1O[C@H]1CO[C@H]2[C@@H]1OC[C@@H]2NC(=O)NC1CCSCC1
2. Cc1ncccc1O[C@H]1CO[C@H]2[C@@H]1OC[C@@H]2NC(=O)NC1CCC(c2ccccc2)CC1 (stereo partly shown)
3. N#CC1COC2C(NC(=O)Nc3ccc(OCc4ccccc4)cc3)COC12 (stereo not shown)
4. O=C(NC1CCCCC1)N[C@H]1CO[C@H]2[C@@H]1OC[C@@H]2Oc1ccc(-c2ccccc2)cc1
5. Cc1ncccc1O[C@H]1CO[C@H]2[C@@H]1OC[C@@H]2NC(=O)NCC1(c2ccccc2)CCCC1

Reply text:
1. 8.05
2. 8.22
3. 6.47
4. 8.15
5. 8.22
